system: DLD (DLD-1): human colon adenocarcinoma; experiment: In vitro anticancer assay (cytotoxicity), human solid tumor cells; conditions: Homo sapiens, DLD-1, read-out: IC50 Values of Cytotoxicities, DLD
IC50 values, listed per item
Report the figure in µg/mL without appending any unit label.

compound=CCCCCCC#C/C=C\C#Cc1ccc([N+](=O)[O-])cc1 system="DLD (DLD-1): human colon adenocarcinoma" measurementkind=IC50 observedmeasurement=1.66
compound="CCCCC#C/C=C\\C#Cc1ccccc1C#N [Compound 3, 2-(3(Z)-Decen-1,5-diynyl)benzonitrile]" system="DLD (DLD-1): human colon adenocarcinoma" measurementkind=IC50 observedmeasurement=5.03
compound="CCCCCCC#C/C=C\\C#Cc1ccccn1 [Compound 15, 2-(3-(Z)-Dodecen-1,5-diynyl)pyridine]" system="DLD (DLD-1): human colon adenocarcinoma" measurementkind=IC50 observedmeasurement=5.15
compound="CCCCCCC#C/C=C\\C#Cc1ccc(C#N)cc1 [Compound 14, 4-(3-(Z)-Dodecen-1,5-diynyl)benzonitrile]" system="DLD (DLD-1): human colon adenocarcinoma" measurementkind=IC50 observedmeasurement=11.9

# next compound below
Summary for this compound, CCCCCCC#C/C=C\C#Cc1cccs1 [Compound 16, 2-(3-(Z)-Dodecen-1,5-diynyl)thiophene] : IC50 is 6.75
